This section presents binders with their documented Kd values.
molecular target: T1, human C-MET His tagged, monomeric (human, UniProt P08581 25-932); assay: SPR Biacore, IgG captured, monomeric C-MET-His analyte
T1 construct: also called monomeric human C-MET; biotinylated human C-MET-His
T1 sequence (P08581 25-932): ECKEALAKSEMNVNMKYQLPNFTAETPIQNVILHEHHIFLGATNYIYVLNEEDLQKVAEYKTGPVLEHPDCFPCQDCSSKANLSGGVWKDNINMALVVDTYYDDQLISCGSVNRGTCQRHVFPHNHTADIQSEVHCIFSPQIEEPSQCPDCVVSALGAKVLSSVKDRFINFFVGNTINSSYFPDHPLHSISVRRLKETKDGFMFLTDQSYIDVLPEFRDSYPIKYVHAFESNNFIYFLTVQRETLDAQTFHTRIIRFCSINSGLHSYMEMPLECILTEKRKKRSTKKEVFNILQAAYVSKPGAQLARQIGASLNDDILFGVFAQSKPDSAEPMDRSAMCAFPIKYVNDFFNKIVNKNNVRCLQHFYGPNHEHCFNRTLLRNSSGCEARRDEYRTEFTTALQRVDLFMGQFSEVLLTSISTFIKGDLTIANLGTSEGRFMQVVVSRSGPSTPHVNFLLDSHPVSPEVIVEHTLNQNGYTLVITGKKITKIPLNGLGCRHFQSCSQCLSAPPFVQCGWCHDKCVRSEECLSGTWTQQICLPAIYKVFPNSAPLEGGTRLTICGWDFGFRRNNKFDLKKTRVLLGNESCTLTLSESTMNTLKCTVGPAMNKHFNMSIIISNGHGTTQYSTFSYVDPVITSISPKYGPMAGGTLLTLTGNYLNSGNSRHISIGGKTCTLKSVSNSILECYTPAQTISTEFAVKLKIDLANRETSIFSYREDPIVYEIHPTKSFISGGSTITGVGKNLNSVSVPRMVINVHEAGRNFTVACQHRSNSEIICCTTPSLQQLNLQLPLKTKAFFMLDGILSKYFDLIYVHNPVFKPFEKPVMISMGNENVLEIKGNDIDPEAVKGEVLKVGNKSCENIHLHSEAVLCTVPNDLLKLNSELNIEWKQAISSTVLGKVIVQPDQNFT
Write the numeric value and append its unit.

Study these solved cases before continuing.
>  <binder>
MH8 (antibody, IgG4, V domains shown) VH: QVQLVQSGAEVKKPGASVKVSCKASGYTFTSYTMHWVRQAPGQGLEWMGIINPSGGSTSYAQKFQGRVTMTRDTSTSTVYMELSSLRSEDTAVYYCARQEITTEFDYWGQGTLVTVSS VL: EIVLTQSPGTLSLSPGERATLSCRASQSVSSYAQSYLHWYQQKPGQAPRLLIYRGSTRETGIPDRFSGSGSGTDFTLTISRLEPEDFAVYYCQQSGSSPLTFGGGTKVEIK

>  <testResult>
2.2 nM

$$$$
>  <binder>
MH9 (antibody, IgG4, V domains shown) VH: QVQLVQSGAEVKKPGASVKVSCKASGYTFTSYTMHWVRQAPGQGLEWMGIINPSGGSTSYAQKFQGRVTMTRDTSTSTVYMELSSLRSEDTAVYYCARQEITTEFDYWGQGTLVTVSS VL: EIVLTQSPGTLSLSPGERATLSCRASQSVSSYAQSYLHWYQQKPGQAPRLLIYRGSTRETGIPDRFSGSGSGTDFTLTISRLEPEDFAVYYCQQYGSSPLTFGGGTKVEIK

>  <testResult>
6.6 nM

$$$$

Query: Find the measured Kd of MH10 (antibody, IgG4, V domains shown) VH: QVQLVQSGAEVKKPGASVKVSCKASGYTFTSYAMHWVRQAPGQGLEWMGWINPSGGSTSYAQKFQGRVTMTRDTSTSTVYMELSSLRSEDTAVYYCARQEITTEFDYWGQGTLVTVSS VL: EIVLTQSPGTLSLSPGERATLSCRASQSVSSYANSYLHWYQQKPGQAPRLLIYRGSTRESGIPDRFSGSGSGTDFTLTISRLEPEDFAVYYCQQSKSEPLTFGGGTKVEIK and report it.
Response: 0.63 nM
